# tested_target: T1, monomeric hIL-4R (R&D Systems) (human, UniProt P24394 26-231)
# T1 construct: Bought (R&D Systems); also called hIL-4R monomer
# T1 sequence: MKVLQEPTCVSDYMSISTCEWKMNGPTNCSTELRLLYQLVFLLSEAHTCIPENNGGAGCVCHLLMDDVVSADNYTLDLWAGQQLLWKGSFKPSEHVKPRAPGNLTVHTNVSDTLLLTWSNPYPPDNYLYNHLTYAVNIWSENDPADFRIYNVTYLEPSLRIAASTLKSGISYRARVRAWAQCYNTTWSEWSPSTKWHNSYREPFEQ
# measurement_description: SPR (BIAcore 2000); antibody captured, monomeric hIL-4R injected
# Experimental: Binding affinity (KD) of selected antibodies with respect to hIL-4R was determined using a real-time biosensor surface plasmon resonance assay (BIAcore™ 2000). Briefly, antibody was captured on a goat anti-mouse (GAM) IgG polyclonal antibody surface created through direct chemical coupling of the GAM IgG to a BIAcore™ chip to form a captured antibody surface. […] Binding of antigen to antibody and dissociation of the bound complex, were monitored in real time. […]
pKd for assorted binders
Quick note: pKd means taking -log10 of the concentration in moles per liter.

Worked examples follow.
*Q* I'd like to know its pKd. The binder in question is VAB 16G1-1 (antibody, V domains shown, 403/405; 407/409 without saying which was assayed; Apparently tested with mouse constant region (anti-mouse IgG capture/detection)) VH: EVKLAESGGGLVQPGGSLRLSCAASGFTFSSHWMNWVRQAPGKGLEWVANIKQDGSDKYYVDSVKGRFTISRDNAKNSLYLQLNSLIAEDTAVYYCARDRGVRPPRGAFDIWGQGTMVTVSS VL: DIQMTQSPSSVSASVGDRVTITCRASQGISSWLAWYQQKPGKAPKLLIYAASSFQSGVPSRFSGSGSGTDFTLTISSLQPEDFATYFCQQANSFPLTFGGGTTVEIK
*A* 9.03

*Q* I'd like to know its pKd. The binder in question is VAB 6C10-14 (antibody, V domains shown, Apparently tested with mouse constant region (anti-mouse IgG capture/detection)) VH: QVQLVQSGAEVKKPGASVKVSCKASGYTFTNYGLTWVRQAPGRGLEWMGWISVYNGNTNYAQTLKGRVTMTTDTSTSTAYMELKSLRSDDTAVYYCARGSGYDFDYWGQGTLVTVSS VL: AIQMTQSPSSLSASVGDRVAITCRASQDIRNDLGWYQQKPGKAPKLLIHTASSLQSGVPSRFSGSGSGTDFTLTISNLQPEDFATYYCLQDNSYPYTFGQGTKLEIN
*A* 8.75

*Q* I'd like to know its pKd. The binder in question is VAB 3B4-10 (antibody, V domains shown, Apparently tested with mouse constant region (anti-mouse IgG capture/detection)) VH: QVHLVQSGAEVKKPGASVKVSCKASGYTFTNYGIGWVRQAPGQGLEWMGWISIYNGNTNYAQRLQGRVTMTTDTSTSTAFMDLRSLKSDDTAVYYCARGSGYNFDHWGQGTLVTVSS VL: AIQMTQSPSSLSASVGDRVTITCRASQGIRNDLGWYQQIPGKAPKLLIYAASSLQSGVPSRFSGSGSGTDFTLTISNLQPEDFAVYFCLQDNTYPYTFGQGTNLESK
*A* 9.23

// switching to the query binder
*Q* I'd like to know its pKd. The binder in question is VX 4E7-9 (antibody, V domains shown, 387/389; Apparently tested with mouse constant region (anti-mouse IgG capture/detection)) VH: QVQLVQSGAEVKKPGASVKVSCKASGYTFTNYGISWVRQAPGQGLEWMGWISVYNGKTNYAQKLQGRVTMTTDTSTTTAYMEMRSLRSDDTAVYYCARGSGYDLDYWGQGTLVSVSS VL: AIQMTQSPSSLSASVGDRVTITCRASQGIRNALGWYQQKPGKAPKLLIYAASSLQSGVPSRFSGSGSGTDFTLTFSSLQPEDFATYYCLQDFNYPYTFGQGTKLEIK
*A* 8.84
